STUDY_SYSTEM: Adrenergic β2 (Homo sapiens, UniProt P07550)
Construct: Adherent H292 cells were removed from tissue culture flasks; endogenous in cells; host or cells: H292 cells
Sequence (P07550 whole entry): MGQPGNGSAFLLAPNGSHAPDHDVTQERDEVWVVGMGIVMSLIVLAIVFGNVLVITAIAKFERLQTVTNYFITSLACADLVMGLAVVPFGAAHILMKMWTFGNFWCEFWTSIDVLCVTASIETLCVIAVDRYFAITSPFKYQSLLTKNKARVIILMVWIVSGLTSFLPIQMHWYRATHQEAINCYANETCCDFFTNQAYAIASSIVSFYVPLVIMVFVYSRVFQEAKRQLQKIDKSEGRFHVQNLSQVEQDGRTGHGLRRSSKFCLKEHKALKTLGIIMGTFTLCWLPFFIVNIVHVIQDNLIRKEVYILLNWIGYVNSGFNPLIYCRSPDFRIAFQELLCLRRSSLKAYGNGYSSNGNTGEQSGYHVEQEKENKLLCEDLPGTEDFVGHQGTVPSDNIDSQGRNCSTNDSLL
PROCEDURE_DETAILS: Adrenergic β2 mediated cAMP production in H292 cells
Assay type: cell-based
CONDITION: Intrinsic Activity as a fraction relative to the maximum activity determined for formoterol
Structures can show the parent of a compound that is named as a salt.
Recorded β2 Int Act for the following molecules
# print the numeric value only

Record excerpt, results attached:
O=C(CCNCCc1cccc(Cl)c1)N(CCNCCc1ccc(O)c2[nH]c(=O)sc12)C1Cc2ccccc2C1 [Example 42, bis-trifluoroacetic acid salt]	0.82
C[C@@H](CNCCC(=O)N(CCNCCc1ccc(O)c2[nH]c(=O)sc12)C1CCCCC1)c1ccccc1 [Example 20, bis-trifluoroacetic acid salt]	0.97
CC(C)(CO)CN(CCNCCc1ccc(O)c2[nH]c(=O)sc12)C(=O)CCNCCc1cccc(Cl)c1 [Example 66, bis-trifluoroacetic acid salt]	0.59
CC(CN(C(=O)CCNCCc1ccccc1)C1CCCCC1)NCCc1ccc(O)c2[nH]c(=O)sc12 (stereo not drawn) [Example 105, bis-trifluoroacetic acid salt]	0.86
O=C(CCNCCc1cccc(Cl)c1)N(CCNCCc1ccc(O)c2[nH]c(=O)sc12)C1CCOCC1 [Example 22, bis-trifluoroacetic acid salt]	0.96

Consider the additional molecule presented here.
Per the record, O=C(CCNCCc1ccccc1)N(CCNCCc1ccc(O)c2[nH]c(=O)sc12)C1Cc2ccccc2C1 [Example 41, bis-trifluoroacetic acid salt] has β2 Int Act of 0.99
